// provenance: ChEMBL document CHEMBL1151179

Test system: Human immunodeficiency virus 1
Assay: Antiviral activity against HIV1
Type: functional, organism-based
property_name: EC50 (µM)
The response must be a number in µM with no trailing unit.

Task: Dear colleague, I am looking for the recorded EC50 of the following compound: Cc1cn([C@H]2C[C@H](N=[N+]=[N-])[C@@H](CO)O2)c(=O)[nH]c1=O [ZIDOVUDINE]
Result: 0.02

Task: Dear colleague, I am looking for the recorded EC50 of the following compound: O=C(O[C@H]1[C@H](Oc2ccccc2COC(=O)C2(O)C=CCCC2=O)O[C@H](CO)[C@@H](O)[C@@H]1O)c1ccccc1 (some centres undefined) [TREMULACIN]
Result: 52

Then this compound:
Task: Dear colleague, I am looking for the recorded EC50 of the following compound: O=c1[nH]cnc2c1ncn2[C@H]1CC[C@@H](CO)O1 [DIDANOSINE]
Result: 2.1

----------
Tested on: Human alphaherpesvirus 2
Assay: Antiviral activity against HSV2
Type: functional, organism-based
property_name: EC50

Task: // map O=C(O[C@H]1[C@H](Oc2ccccc2CO)O[C@H](CO)[C@@H](O)[C@@H]1O)c1ccccc1 [TREMULDIN] to recorded EC50 (system: Human alphaherpesvirus 2)
Result: > 256 µM

Then this compound:
Task: // map O=C(O[C@H]1[C@H](Oc2ccccc2COC(=O)C2(O)C=CCCC2=O)O[C@H](CO)[C@@H](O)[C@@H]1O)c1ccccc1 (stereo partly specified) [TREMULACIN] to recorded EC50 (system: Human alphaherpesvirus 2)
Result: 86 µM

----------
System: Human alphaherpesvirus 2
Test: Antiviral activity against HSV2
Assay type: functional, organism-based
property_name: EC50 (µM)
The response must be a number in µM with no trailing unit.

In the examples that follow, each entry is paired with its recorded EC50.
Task: Dear colleague, I am looking for the recorded EC50 of the following compound: Nc1nc2c(ncn2COCCO)c(=O)[nH]1
Result: 1

Task: Dear colleague, I am looking for the recorded EC50 of the following compound: O=C(O[C@H]1[C@H](Oc2c(O)cccc2COC(=O)C2(O)C=CCCC2=O)O[C@H](CO)[C@@H](O)[C@@H]1O)c1ccccc1 (some centres undefined) [COCHINCHISIDE B]
Result: 76

Next:
Task: Dear colleague, I am looking for the recorded EC50 of the following compound: O=C1OC2=C[C@@H](O)CCC2=C1C(O)c1ccccc1 (some centres undefined) [COCHINOLIDE]
Result: 86
